- TESTED_TARGET: EGFR (H773insNPH) expressing Ba/F3 stable cell line (Homo sapiens, UniProt P00533, DUP771-773, cells depend on it)
- Sequence (P00533 with tags, fused parts or gaps DUP771-773): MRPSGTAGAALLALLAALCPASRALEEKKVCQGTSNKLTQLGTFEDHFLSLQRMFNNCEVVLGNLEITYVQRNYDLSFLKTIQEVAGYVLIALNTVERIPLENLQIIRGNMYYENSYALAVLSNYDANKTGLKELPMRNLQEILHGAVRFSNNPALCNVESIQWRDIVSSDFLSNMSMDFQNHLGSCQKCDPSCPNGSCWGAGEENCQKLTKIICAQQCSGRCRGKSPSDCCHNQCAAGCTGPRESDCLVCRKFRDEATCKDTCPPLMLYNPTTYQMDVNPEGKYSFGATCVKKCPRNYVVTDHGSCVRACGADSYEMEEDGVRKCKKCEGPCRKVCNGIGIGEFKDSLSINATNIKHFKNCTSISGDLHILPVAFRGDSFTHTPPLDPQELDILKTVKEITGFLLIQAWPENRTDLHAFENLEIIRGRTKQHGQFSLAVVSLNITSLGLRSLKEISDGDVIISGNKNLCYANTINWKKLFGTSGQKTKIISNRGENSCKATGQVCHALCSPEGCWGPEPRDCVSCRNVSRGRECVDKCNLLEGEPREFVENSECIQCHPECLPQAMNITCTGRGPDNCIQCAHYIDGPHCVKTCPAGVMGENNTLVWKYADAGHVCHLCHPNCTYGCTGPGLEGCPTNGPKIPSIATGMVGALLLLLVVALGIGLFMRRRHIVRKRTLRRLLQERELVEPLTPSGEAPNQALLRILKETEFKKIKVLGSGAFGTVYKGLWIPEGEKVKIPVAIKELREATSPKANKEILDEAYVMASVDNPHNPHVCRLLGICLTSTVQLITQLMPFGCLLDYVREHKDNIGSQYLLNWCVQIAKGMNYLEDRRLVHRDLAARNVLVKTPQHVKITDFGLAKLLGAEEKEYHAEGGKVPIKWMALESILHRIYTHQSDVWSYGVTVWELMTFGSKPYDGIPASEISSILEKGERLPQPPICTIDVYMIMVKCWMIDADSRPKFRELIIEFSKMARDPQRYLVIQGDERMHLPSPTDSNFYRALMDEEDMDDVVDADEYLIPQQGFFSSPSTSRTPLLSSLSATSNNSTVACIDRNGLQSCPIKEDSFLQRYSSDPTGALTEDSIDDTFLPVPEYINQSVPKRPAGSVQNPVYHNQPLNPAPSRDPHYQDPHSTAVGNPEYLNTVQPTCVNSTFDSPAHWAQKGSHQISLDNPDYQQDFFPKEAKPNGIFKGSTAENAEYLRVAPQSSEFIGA
- ASSAY_NOTES: Cellular proliferation (Alamar Blue) assay, EGFR (H773insNPH) Ba/F3
- Assay type: cell-based
- SETTINGS: 72 hr, read-out: NPH IC50
PARAMETER_MEASURED: GI50 (nM)

Examples with their reported GI50 follow.
MOLECULE_SMILES: C=CC(=O)Nc1ccc(F)c(Nc2nc(Nc3cnn(C4COC4)c3)ncc2-c2ccc(Br)c(F)c2)c1
UNIT_NAME: nM
GI50: 35
--
MOLECULE_SMILES: C=CC(=O)Nc1ccc(F)c(Nc2nc(Nc3cnn(C)c3)ncc2-c2cnc(F)c(C(F)(F)F)c2)c1
UNIT_NAME: nM
GI50: 20
--
MOLECULE_SMILES: C=CC(=O)Nc1ccc(F)c(Nc2nc(Nc3cnn(C)c3)ncc2-c2cc(F)cc(C(F)(F)F)c2)c1
UNIT_NAME: nM
GI50: 55

A. C=CC(=O)Nc1ccc(F)c(Nc2nc(Nc3cnn(C)c3)ncc2-c2ccc(Br)c(Cl)c2)c1
B. C=CC(=O)Nc1cccc(Nc2nc(Nc3cnn(C)c3)ncc2-c2ccc(Cl)c(F)c2)c1
C. C=CC(=O)Nc1ccc(F)c(Oc2nc(Nc3cnn(C)c3)ncc2-c2ccc(Cl)c(F)c2)c1
D. C=CC(=O)Nc1ccc(F)c(Nc2nc(Nc3cnn(C)c3)ncc2-c2ccc(N3CCCC3)c(F)c2)c1
Lookup: Order the 4 compounds from highest to lowest GI50. Give the labels in the order requested.
Found: D, C, A, B
(D: 353 nM, C: 153 nM, A: 57 nM, B: 21 nM)
